molecular target: UniProt Q8NER1; assay: Agonist activity at human TRPV1 expressed in CHO cells assessed as (45)Ca2+ uptake after 5 mins by liquid scintillation counting analysis; format: cell-based
Sequence (Q8NER1 whole entry): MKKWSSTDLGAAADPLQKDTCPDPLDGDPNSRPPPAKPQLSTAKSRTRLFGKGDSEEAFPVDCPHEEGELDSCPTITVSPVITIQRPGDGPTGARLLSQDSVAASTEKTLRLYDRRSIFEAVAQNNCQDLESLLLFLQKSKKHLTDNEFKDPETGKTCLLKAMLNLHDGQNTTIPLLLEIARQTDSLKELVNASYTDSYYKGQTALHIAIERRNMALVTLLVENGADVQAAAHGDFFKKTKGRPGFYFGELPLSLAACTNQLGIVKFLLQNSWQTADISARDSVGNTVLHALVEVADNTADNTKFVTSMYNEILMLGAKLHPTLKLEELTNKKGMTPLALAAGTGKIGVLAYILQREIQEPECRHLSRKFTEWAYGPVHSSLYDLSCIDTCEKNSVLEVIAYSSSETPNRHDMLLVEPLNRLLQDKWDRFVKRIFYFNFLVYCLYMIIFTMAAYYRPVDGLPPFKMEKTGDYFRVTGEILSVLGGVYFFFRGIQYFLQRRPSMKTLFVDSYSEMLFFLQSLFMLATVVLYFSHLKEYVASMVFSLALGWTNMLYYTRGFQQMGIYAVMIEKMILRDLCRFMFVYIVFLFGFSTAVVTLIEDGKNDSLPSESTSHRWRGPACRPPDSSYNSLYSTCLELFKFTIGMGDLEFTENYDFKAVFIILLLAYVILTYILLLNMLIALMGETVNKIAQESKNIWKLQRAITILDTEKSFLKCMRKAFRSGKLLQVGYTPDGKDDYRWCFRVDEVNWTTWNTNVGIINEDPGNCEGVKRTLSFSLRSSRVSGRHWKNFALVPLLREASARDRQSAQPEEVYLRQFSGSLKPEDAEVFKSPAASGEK
Readout Label: EC50

{"columns": ["Compound", "Readout Label", "Result"],
 "data": [
  ["CC1CCN(c2nc(C(F)(F)F)ccc2CNC(=O)C(C)c2ccc(NS(C)(=O)=O)c(F)c2)CC1 (stereo not drawn)", "EC50", "Not Active"],
  ["CC(C(=O)NCc1ccc(C(F)(F)F)nc1N(C)S(=O)(=O)c1ccccc1)c1ccc(NS(C)(=O)=O)c(F)c1 (stereo not drawn)", "EC50", "Not Active"],
  ["CCCS(=O)(=O)N(Cc1ccccc1)c1nc(C(F)(F)F)ccc1CNC(=O)C(C)c1ccc(NS(C)(=O)=O)c(F)c1 (stereo not drawn)", "EC50", "Not Active"]
]}
